- Target Or System: MRP (Homo sapiens, UniProt P33527)
- Construct: MCF-7/VP cells, a cell line that expresses MRP; endogenous in cells; host or cells: MCF-7/VP cells
- Sequence (P33527 whole entry): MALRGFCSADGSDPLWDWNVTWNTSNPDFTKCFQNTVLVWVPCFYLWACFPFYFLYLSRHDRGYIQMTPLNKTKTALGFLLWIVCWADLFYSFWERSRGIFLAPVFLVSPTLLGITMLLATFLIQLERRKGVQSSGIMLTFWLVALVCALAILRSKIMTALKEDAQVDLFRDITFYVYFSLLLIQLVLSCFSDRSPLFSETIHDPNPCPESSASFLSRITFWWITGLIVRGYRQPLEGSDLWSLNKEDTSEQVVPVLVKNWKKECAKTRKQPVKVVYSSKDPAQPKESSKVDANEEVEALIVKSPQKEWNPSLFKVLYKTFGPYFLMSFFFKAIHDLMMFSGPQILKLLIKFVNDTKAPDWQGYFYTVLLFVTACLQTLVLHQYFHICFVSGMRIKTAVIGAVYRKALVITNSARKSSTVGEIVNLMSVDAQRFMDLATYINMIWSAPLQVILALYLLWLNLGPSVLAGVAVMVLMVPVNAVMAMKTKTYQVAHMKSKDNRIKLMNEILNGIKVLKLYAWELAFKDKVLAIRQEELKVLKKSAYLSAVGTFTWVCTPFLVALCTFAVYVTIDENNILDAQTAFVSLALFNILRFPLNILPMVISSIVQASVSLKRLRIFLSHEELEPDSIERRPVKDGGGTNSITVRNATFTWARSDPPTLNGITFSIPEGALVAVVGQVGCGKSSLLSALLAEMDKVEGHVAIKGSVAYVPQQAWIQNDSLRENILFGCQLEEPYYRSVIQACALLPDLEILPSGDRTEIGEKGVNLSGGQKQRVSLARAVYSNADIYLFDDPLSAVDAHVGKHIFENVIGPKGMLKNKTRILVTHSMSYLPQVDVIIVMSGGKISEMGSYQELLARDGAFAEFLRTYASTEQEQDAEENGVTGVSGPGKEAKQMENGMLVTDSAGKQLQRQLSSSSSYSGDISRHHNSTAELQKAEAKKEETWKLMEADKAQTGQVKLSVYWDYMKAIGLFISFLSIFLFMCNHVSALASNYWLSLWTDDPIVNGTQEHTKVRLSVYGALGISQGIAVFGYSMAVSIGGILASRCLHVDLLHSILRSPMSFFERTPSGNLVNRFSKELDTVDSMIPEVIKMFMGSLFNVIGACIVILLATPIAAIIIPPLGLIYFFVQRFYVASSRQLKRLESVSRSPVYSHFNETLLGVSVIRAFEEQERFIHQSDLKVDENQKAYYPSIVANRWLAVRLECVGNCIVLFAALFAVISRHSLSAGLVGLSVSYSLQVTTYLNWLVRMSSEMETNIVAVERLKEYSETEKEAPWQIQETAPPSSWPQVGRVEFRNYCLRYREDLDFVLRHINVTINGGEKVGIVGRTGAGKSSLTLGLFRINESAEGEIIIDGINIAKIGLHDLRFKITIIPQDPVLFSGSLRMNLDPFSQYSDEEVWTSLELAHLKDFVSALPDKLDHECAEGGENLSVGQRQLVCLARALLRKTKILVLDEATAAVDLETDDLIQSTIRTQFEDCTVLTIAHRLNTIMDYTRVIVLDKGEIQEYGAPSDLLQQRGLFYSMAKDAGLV
- Protocol Text: Reversal of MRP-mediated MDR: enhancement of vincristine cytotoxicity toward MCF-7/VP cells
- Assay type: cell-based
- Condition Parameters: % survival with compound alone / with compound + 1 nM vincristine
Readout Name: MRP Antagonism
Reply with just the number.

- Sample Smiles: "CN1CCc2c1nc1ccccc1c2NC(=O)CCc1cc(C(C)(C)C)c(O)c(C(C)(C)C)c1"
  MRP Antagonism: 1.0
- Sample Smiles: "CC(C)NCC(=O)Nc1c2c(nc3ccccc13)N(Cc1ccccc1)CC2"
  MRP Antagonism: 0.99
- Sample Smiles: "CN1CCc2c1nc1ccccc1c2NC(=O)Cc1ccccc1"
  MRP Antagonism: 1.0

What value of measured MRP Antagonism is listed for "CC(C)(C)c1cc(CCC(=O)Nc2c3c(nc4ccccc24)N(Cc2ccccc2)CC3)cc(C(C)(C)C)c1O" ?
1.15

Query: MRP Antagonism; subject: "CCCCN(CCCC)CC(=O)Nc1c2c(nc3ccccc13)N(C)CC2"
1.3

# query: MRP Antagonism of entry "O=C(Nc1c2c(nc3ccccc13)N(Cc1cccc(Cl)c1)CC2)C12CC3CC(CC(C3)C1)C2"
1.2

----------
Catalogue of MRP Antagonism readings, one per entry.
- Target Or System: MRP (Homo sapiens, UniProt P33527)
- Construct: MCF-7/VP cells, a cell line that expresses MRP; endogenous in cells; host or cells: MCF-7/VP cells
- Protocol Text: Reversal of MRP-mediated MDR: enhancement of vincristine cytotoxicity toward MCF-7/VP cells
- Type: cell-based
- Condition Parameters: % survival with compound alone / with compound + 1 nM vincristine
Would you mind answering with just the numeric figure?

# example entries with known answers
- Sample Smiles: "CN1CCc2c1nc1ccccc1c2NC(=O)CNC(C)(C)C"
  MRP Antagonism: 1.2
- Sample Smiles: "CN1CCc2c1nc1ccccc1c2N=C(c1ccccc1)N1CCCCC1"
  MRP Antagonism: 1.0
- Sample Smiles: "CN1CCN(CC(=O)Nc2c3c(nc4ccccc24)N(Cc2ccccc2)CC3)CC1"
  MRP Antagonism: 1.07
- Sample Smiles: "Nc1c2c(nc3ccccc13)N(Cc1ccccc1)CC2"
  MRP Antagonism: 1.0
- Sample Smiles: "CC(C)NCC(=O)Nc1c2c(nc3ccccc13)N(C)CC2"
  MRP Antagonism: 1.4
- Sample Smiles: "CN1CCc2c1nc1cc(Br)ccc1c2N"
  MRP Antagonism: 1.6

What MRP Antagonism value was documented for this compound, "Nc1c2c(nc3ccccc13)N(C1CCCCC1)CC2" ?
0.6

Entry under review: "CN1CCc2c1nc1ccccc1c2NC(=O)C12CC3CC(CC(C3)C1)C2" . Reported MRP Antagonism?
0.9
